Tested on: P. knowlesi YH1 strain
method-description: microbe, parasite or virus in culture
Format: cell-based, Plasmodium knowlesi
condition-parameters: 48h, ring-stage; n=3 experiments (or 2 where indicated with *); read-out: IC50 (S.D.), P. knowlesi
result-type: pIC50
# pIC50: negative log10 of molar concentration; output just the value

Tell me measured pIC50 for `[Cl][Au]([Cl])[Cl].c1cnc2c(c1)ccc1cccnc12` please.
5.70

----------
method-description: in vitro
condition-parameters: human
result-type: hemolysis at 48 h, 5 x P. falciparum 3D7-IC50
Note: a bare number is incomplete; add the unit.

Give the value of hemolysis at 48 h, 5 x P. falciparum 3D7-IC50 reported for the following: `CC(C)CC(O)(CC(C)C)c1cnn(C(=O)N2CCCC2)n1`
-1%

Now take the following compound into account.
Report hemolysis at 48 h, 5 x P. falciparum 3D7-IC50 for `O=C(O)c1ccc2c(c1)nc(Nc1cccc(Cl)c1)c1ccncc12`
-1%
